Target: T1, recombinant human interleukin 12 (p40/p35 heterodimer) (human, UniProt P29460 23-328; P29459 23-219)
T1 chain 1: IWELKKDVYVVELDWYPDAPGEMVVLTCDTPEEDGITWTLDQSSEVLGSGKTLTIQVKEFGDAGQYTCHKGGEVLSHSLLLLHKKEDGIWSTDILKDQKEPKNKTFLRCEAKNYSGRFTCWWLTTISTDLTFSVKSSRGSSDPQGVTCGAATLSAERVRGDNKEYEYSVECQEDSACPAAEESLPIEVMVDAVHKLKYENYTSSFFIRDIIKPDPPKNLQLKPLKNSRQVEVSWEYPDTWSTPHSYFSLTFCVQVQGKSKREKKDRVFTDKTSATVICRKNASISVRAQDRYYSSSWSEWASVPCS
T1 chain 2: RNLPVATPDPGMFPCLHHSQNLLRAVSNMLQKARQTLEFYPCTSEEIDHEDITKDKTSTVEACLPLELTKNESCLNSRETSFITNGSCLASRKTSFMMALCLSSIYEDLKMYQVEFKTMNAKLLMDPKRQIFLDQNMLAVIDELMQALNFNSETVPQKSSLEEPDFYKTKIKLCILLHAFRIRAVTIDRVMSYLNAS
Assay: BIAcore
quantity kind: koff (s⁻¹)

{"columns": ["binder", "koff [s⁻¹]"],
 "data": [
  ["TGSHDN [Y61 H95 T]", 0.00202],
  ["HRSHDN [Y61 H96 R]", 0.000962],
  ["SGSHDN [Y61 H95 S]", 0.00193],
  ["HLSHDN [Y61 H96 L]", 0.00261],
  ["HVSHDN [Y61 H96 V]", 0.000382]
]}

[I] AGSHDN [Y61 H95 A]
[II] QGSHDN [Y61 H95 Q]
Thinking about recorded koff values, which is higher, I or II ? # reply format: chosen label
I
(I: 0.0015 s⁻¹, II: 0.000859 s⁻¹)

[a] HGAHDN [Y61 H97 A]
[b] HGSHYN [Y61 H101 Y]
[c] HGGHDN [Y61 H97 G]
[d] HGSRDN [Y61 H98 R]
[e] HGSADN [Y61 H98 A]
Provide the items ranked by increasing koff. Arrange the labels as the request states and list them.
d, e, a, c, b

[A] HTSHDN [Y61 H96 T]
[B] HPSHDN [Y61 H96 P]
[C] HGSIDN [Y61 H98 I]
Falling order of koff, please. Arrange the labels as the request states and list them.
A, B, C
(A: 0.00186 s⁻¹, B: 0.00129 s⁻¹, C: 0.000343 s⁻¹)

[1] HISHDN [Y61 H96 I]
[2] HCSHDN [Y61 H96 C]
Which has the smaller recorded koff, 1 or 2 ? # reply format: chosen label
2
(2: 0.000242 s⁻¹, 1: 0.00208 s⁻¹)
